biological target: the molecule itself; assay: self-association of the chimeric protein; size exclusion HPLC
Ends that are not written are not given here.

protein	binding result
LSRLEEKLKTLKSQLTELASTLSLLREQLAQ (other, not shown: large carriers, also: domain of chimeric fusion protein, fusion partner and linker not given here) [chimeric fusion protein with the JUN-D-LL domain]	binds
LARLEEKLKTLKAQLSELASTLNMLREQLAQ (other, not shown: large carriers, also: domain of chimeric fusion protein, fusion partner and linker not given here) [chimeric fusion protein with the CJUN-LL domain]	binds
LSRIEEKLKTIKSQLTEIASTLSLIREQLAQ (other, not shown: large carriers, also: domain of chimeric fusion protein, fusion partner and linker not given here) [chimeric fusion protein with the JUN-D-LI domain]	binds
LKSLENRLAVLENQLKTLIEELKTLKDLLSN (other, not shown: large carriers, also: domain of chimeric fusion protein, fusion partner and linker not given here) [chimeric fusion protein with the ATF-1-LL domain]	binds
